Measured shrunken log2 fold change accompanies every entry in the list below.
Test system: Escherichia coli TOP10;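 further: peptides expressed intracellularly from a pBAD plasmid library in pooled LB shake-flask culture, induced with 0.3% L-arabinose, DNA abundance read by NGS, three biological replicates, DESeq2 with apeglm shrinkage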
method_notes: shrunken log2 fold change of peptide-encoding DNA abundance (4.5 h post-induction vs induction); higher = less antimicrobial activity (less host growth inhibition)
condition_info: time post-induction: 4.5 h; library: site-saturation at positions 5, 18, 19, 20

RRIRHRPPRLPRPRPRPGRKPRP	0.00144
RRIRVRPPRLPRPRPRPDYFPRP	-0.163
RRIRRRPPRLPRPRPRPEDHPRP	0.122
RRIRIRPPRLPRPRPRPQMEPRP	-0.12
RRIRQRPPRLPRPRPRPNCKPRP	-0.555
RRIRSRPPRLPRPRPRPCWLPRP	0.102
RRIRDRPPRLPRPRPRPVFHPRP	-0.707
RRIRFRPPRLPRPRPRPGSFPRP	-0.0983
RRIRLRPPRLPRPRPRPHIDPRP	-0.135
RRIRNRPPRLPRPRPRPCAFPRP	-0.071

Look up shrunken log2 fold change for this sequence: RRIRARPPRLPRPRPRPWAHPRP
0.0535

Same question for RRIRNRPPRLPRPRPRPKPHPRP please.
0.174

// data source = the supplement of paper PMC9112550
